assayName: MELAS cybrid and Rieske KO viability enhancers – cell-based, MELAS cybrids, Rieske KO mouse fibroblasts, CellTiter-Glo, primary screen (AID 1508586);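 further: z relative to plate mean and SD of compound and empty wells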
experimentalParameters: MELAS cybrid survival, low glucose, CellTiter-Glo 48 h
Activity calls are given as the source filed them.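 How the source made its calls: active means mean z-score across replicates of 1.96 or higher in either the MELAS or the Rieske mutant cell line; inactive means the rest.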
Permitted responses: 1.0 = active, 0.0 = inactive

Some solved cases for reference:
compound	classLabel
O=C(NNc1nc2cc(F)ccc2n2cccc12)c1cnccn1	0.0
O=C(O)c1ccc(O)cc1O	0.0

Okay, now this compound:
Ask: What is the recorded call for this compound in the test? NC1CCCN(c2c(C=C3SC(=O)NC3=O)cccc2-c2ccccc2)C1 (stereo not given)
Reply: 0.0

###

Let's look at some compounds and their measured inhibition.
assayName: growth inhibition, single agent and combos, cell-based, chromothripsis tumors, cisplatin or BGB combos (AID 1671450);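 further: cells exposed to compound for four days; 0% = vehicle DMSO and 100% = cell killing by high DMSO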
experimentalParameters: HDN33 neuroblastoma cells, at 0.5 µM, stronger effect = higher value
Give the number; % is assumed, so skip it.

compound	observedResult
O=c1[nH]cnc2c1ncn2C1CCC(CO)O1 (centres undefined)	-10.3

Ask: # query: inhibition of entry "Nc1nc(NC2CC2)cc(-c2cccc(Cl)c2Cl)n1"
Reply: -22.2

Ask: Thanks! And CCC1(O)C(=O)OCc2c1cc1n(c2=O)Cc2cc3cc(O)ccc3nc2-1 (centres undefined) ?
Reply: 75

Ask: Then "CC(C)C(=O)SCCCCCCC(=O)Nc1nc(-c2ccccc2)cs1" ?
Reply: 6.91

Ask: Continue with "Cc1cc(C#N)cc(C)c1Oc1nc(Nc2ccc(C#N)cc2)nc(N)c1Br"
Reply: -5.11
